molecular target: IDO1 (A172+IFNg cells, high IDO expressing cells) (Homo sapiens, UniProt P14902); construct: A172+IFNg cells (high IDO expressing cells); endogenous in cells; test: NFK GreenScreen cell assay, inhibition of IDO in A172+IFNg cells; details: read-out: IDO cell Fluor EC50
Sequence (P14902 whole entry): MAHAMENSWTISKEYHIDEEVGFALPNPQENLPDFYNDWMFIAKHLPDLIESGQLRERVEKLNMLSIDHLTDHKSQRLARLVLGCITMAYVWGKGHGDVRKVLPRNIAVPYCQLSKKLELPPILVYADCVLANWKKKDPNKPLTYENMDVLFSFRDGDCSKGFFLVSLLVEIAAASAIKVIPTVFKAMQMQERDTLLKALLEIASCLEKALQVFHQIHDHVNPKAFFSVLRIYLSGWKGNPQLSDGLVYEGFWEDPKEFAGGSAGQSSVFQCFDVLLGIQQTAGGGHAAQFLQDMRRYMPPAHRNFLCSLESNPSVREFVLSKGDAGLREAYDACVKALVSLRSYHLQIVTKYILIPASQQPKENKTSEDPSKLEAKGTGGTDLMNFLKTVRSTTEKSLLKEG
MEASURED_ATTRIBUTE: pEC50
Note: pEC50 values are expressed as the negative base-10 logarithm of concentration in M.

{"columns": ["COMPOUND", "MEASURED_ATTRIBUTE", "OBSERVED_RESULT"],
 "data": [
  ["CC(C)(C)OC(=O)N1CC2CCC(C1)C21C[C@@H]([C@H]2c3ccccc3-c3cncn32)[C@H]1O (single isomer, unassigned) [Example 22b]", "pEC50", 4.92],
  ["CC(C)(C)OC(=O)N1[C@@H]2CC[C@H]1C[C@@]1(C[C@H]([C@H]3c4ccccc4-c4cncn43)[C@@H]1O)C2 (single isomer, unassigned) [Example 12k]", "pEC50", 4.89],
  ["CS(=O)(=O)N1CCC2(CC1)C[C@H]([C@@H]1c3ccccc3-c3cncn31)[C@@H]2O (single isomer, unassigned)", "pEC50", 5.23],
  ["CC(C)S(=O)(=O)N1CCC2(CC1)C[C@@H]([C@H]1c3ccccc3-c3cncn31)[C@H]2O", "pEC50", 7.23]
]}

(Q) Name the recorded pEC50 for CC(C)(C)OC(=O)N1[C@@H]2CC[C@H]1C[C@@]1(C[C@@H]([C@H]3c4ccccc4-c4cncn43)[C@H]1O)C2 (single isomer, unassigned) [Example 12b] .
(A) 5.09

(Q) Which pEC50 is listed for CS(=O)(=O)N1CCC2(CC1)C[C@@H]([C@H]1c3ccccc3-c3cncn31)[C@@H]2O (single isomer, unassigned) ?
(A) 5.03

###

Biological target: TDO2 (SW48 cells, high TDO expressing cells) (Homo sapiens)
Construct: SW48 cells (high TDO expressing cells); endogenous in cells
Sequence (P48775 whole entry): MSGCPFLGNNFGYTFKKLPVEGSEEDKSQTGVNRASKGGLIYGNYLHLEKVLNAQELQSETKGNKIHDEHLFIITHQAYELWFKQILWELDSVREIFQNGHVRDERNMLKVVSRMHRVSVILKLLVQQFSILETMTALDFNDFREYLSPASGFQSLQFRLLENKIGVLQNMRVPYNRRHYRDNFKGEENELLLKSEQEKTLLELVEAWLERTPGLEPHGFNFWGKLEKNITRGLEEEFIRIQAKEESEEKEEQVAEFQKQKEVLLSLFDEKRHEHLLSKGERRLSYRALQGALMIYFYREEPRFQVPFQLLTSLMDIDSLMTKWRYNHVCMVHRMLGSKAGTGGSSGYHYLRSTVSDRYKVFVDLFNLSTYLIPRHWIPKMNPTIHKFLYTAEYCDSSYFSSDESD
Experiment: NFK GreenScreen cell assay, inhibition of TDO in SW48 cells
Conditions: read-out: TDO2 Cell Fluor EC50
From the text: Cells are counted on a Vi-Cell (Beckman Coulter). […] The final DMSO concentration is 0.5%.
Each record here notes measured EC50.

{"columns": ["COMPOUND", "MEASURED_ATTRIBUTE", "OBSERVED_RESULT"],
 "data": [
  ["CS(=O)(=O)N1CC2(CC(C3c4ccccc4-c4cncn43)C2O)C1 (stereo not shown)", "EC50", "230 nM"],
  ["NS(=O)(=O)N1CC2(CC[C@H]([C@@H]3c4ccccc4-c4cncn43)[C@H]2O)C1 (single isomer, unassigned)", "EC50", "110 nM"],
  ["CC(C)(C)OC(=O)N[C@H]1CC[C@@]2(CC1)C[C@H]([C@H]1c3ccccc3-c3cncn31)[C@@H]2O (single isomer, unassigned) [Example 24e]", "EC50", "16000 nM"],
  ["NC(=O)N1CCC(C(=O)N2CCC3(CC2)CC(C2c4ccccc4-c4cncn42)C3O)CC1 (stereo not shown)", "EC50", "14000 nM"],
  ["CC(C)(C)OC(=O)N1CC2CCC(C1)C21C[C@@H]([C@H]2c3ccccc3-c3cncn32)[C@@H]1O (stereo partly shown) [Example 22h]", "EC50", "4000 nM"]
]}

(Q) Provide value of EC50 for this record tested with TDO2 (SW48 cells, high TDO expressing cells) (Homo sapiens): O=S(=O)(C1COC1)N1CCC2(CC1)C[C@@H]([C@H]1c3ccccc3-c3cncn31)[C@H]2O [Example 23c]
(A) 90 nM

(Q) Reported EC50 for TDO2 (SW48 cells, high TDO expressing cells) (Homo sapiens), given CS(=O)(=O)N1CCC2(CC1)C[C@H]([C@H]1c3ccccc3-c3cncn31)[C@H]2O (single isomer, unassigned) ?
(A) 1230 nM

(Q) Form field: EC50 recorded for CC(C)(C)OC(=O)N1[C@@H]2CC[C@H]1C[C@@]1(C[C@@H]([C@@H]3c4ccccc4-c4cncn43)[C@@H]1O)C2 (single isomer, unassigned) [Example 12m] with TDO2 (SW48 cells, high TDO expressing cells) (Homo sapiens) (enter value)
(A) 15000 nM

(Q) Entry Cn1ccc(S(=O)(=O)N2CCC3(CC2)CC(C2c4ccccc4-c4cncn42)C3O)n1 (stereo not shown) , system TDO2 (SW48 cells, high TDO expressing cells) (Homo sapiens): what EC50 was measured?
(A) 280 nM

(Q) Request body: readout EC50, system TDO2 (SW48 cells, high TDO expressing cells) (Homo sapiens), query CS(=O)(=O)N1CCC2(CC1)C[C@H]([C@@H]1c3ccccc3-c3cncn31)[C@@H]2O (single isomer, unassigned) . Return the value.
(A) 400 nM

(Q) Notebook: pull reported EC50 for TDO2 (SW48 cells, high TDO expressing cells) (Homo sapiens), entry CS(=O)(=O)N1CC2CCC(C1)C21CC(C2c3ccccc3-c3cncn32)C1O (single isomer, unassigned)
(A) 140 nM

(Q) Param readout = EC50; param system = TDO2 (SW48 cells, high TDO expressing cells) (Homo sapiens); param query = CC(C)(C)OC(=O)N1[C@@H]2CC[C@H]1C[C@]1(C[C@H]([C@@H]3c4ccccc4-c4cncn43)[C@H]1O)C2 (single isomer, unassigned) [Example 12g] ; response: value
(A) 2100 nM

(Q) Missing value: EC50, TDO2 (SW48 cells, high TDO expressing cells) (Homo sapiens), entry CS(=O)(=O)N1CCC2(CC[C@@H]([C@H]3c4ccccc4-c4cncn43)[C@H]2O)CC1 (single isomer, unassigned) . Fill in?
(A) 133 nM

###

biological target: IDO1 (A172+IFNg cells, high IDO expressing cells) (Homo sapiens); construct: A172+IFNg cells (high IDO expressing cells); endogenous in cells; experiment: NFK GreenScreen cell assay, inhibition of IDO in A172+IFNg cells; settings: read-out: IDO cell Fluor EC50
pEC50: −log10 of the molar value.
# binarize pEC50: threshold 6 inclusive, high side condition met, low side condition not met

The following compounds have reported results that may help.
{"columns": ["COMPOUND", "GROUP_LABEL"],
 "data": [
  ["CC(C)(C)OC(=O)N1CCC2(CC[C@@H]([C@H]3c4ccccc4-c4cncn43)[C@H]2O)CC1 (single isomer, unassigned)", "condition met"],
  ["O=S(=O)(c1c[nH]cn1)N1CCC2(CCC(C3c4ccccc4-c4cncn43)C2O)CC1 (single isomer, unassigned)", "condition not met"],
  ["O=C(CN1CCCCC1=O)N1CCC2(CC1)CC(C1c3ccccc3-c3cncn31)C2O (centres unmarked)", "condition not met"],
  ["CC(=O)N1CCC2(CC[C@H]([C@@H]3c4ccccc4-c4cncn43)[C@@H]2O)CC1 (single isomer, unassigned) [Example 10b]", "condition met"],
  ["Cc1noc(C)c1S(=O)(=O)N1CCC2(CC1)C[C@@H]([C@H]1c3ccccc3-c3cncn31)[C@H]2O", "condition met"],
  ["CN1CC(C(=O)N2CCC3(CC2)CC(C2c4ccccc4-c4cncn42)C3O)CC1=O (centres unmarked)", "condition not met"]
]}

Now for a further compound.
(Q) Hi team, for NS(=O)(=O)N1CCC2(CC1)C[C@H]([C@H]1c3ccccc3-c3cncn31)[C@H]2O (single isomer, unassigned) [Example 11g] , is the recorded pEC50 at or above 6?
(A) condition not met

###

Measured pEC50 of individual entries
biological target: IDO1 (A172+IFNg cells, high IDO expressing cells) (Homo sapiens, UniProt P14902); construct: A172+IFNg cells (high IDO expressing cells); endogenous in cells; test: NFK GreenScreen cell assay, inhibition of IDO in A172+IFNg cells; conditions: read-out: IDO cell Fluor EC50
In plain terms, pEC50 is the concentration in mol/L turned into minus its base-10 logarithm.

Worked cases, pEC50 given:
{"columns": ["COMPOUND", "TESTED_SYSTEM", "OBSERVED_RESULT"],
 "data": [
  ["CC(C)(C)OC(=O)N1CC2(CC[C@@H]([C@H]3c4ccccc4-c4cncn43)[C@@H]2O)C1 (single isomer, unassigned) [Example 3e]", "IDO1 (A172+IFNg cells, high IDO expressing cells) (Homo sapiens, UniProt P14902)", 5.15],
  ["NC(=O)N1CCC(C(=O)N2CCC3(CC2)CC(C2c4ccccc4-c4cncn42)C3O)CC1 (stereo not shown) [compound 66]", "IDO1 (A172+IFNg cells, high IDO expressing cells) (Homo sapiens, UniProt P14902)", 4.89]
]}

(Q) I'd like to know its pEC50. The compound in question is O=C(NCC(F)F)N1CCC2(CC1)C[C@@H]([C@H]1c3ccccc3-c3cncn31)[C@H]2O [compound 58]
(A) 6.46

(Q) Would you mind telling me what pEC50 value was observed for CC(=O)N1CCC2(CC1)C[C@@H]([C@H]1c3ccccc3-c3cncn31)[C@H]2O [compound 56] ?
(A) 6.18

Origin of values: patent US11603373B2
